# credit: ChEMBL document CHEMBL4619811

Provide the recorded Papp at 5 h for the entries that follow.
Test: Apparent permeability in pH 7.4 ammonium acetate buffer incubated for 5 hrs by PAMPA
Type: ADME

query: Please look up its Papp at 5 h: CN1C(=O)N(c2ccc(C#N)c(C(F)(F)F)c2)C(=O)C1(C)c1ccc(OCCOCCOCCOCCOc2cccc3c2CN([C@H]2CCC(=O)NC2=O)C3=O)cc1 (stereo partly drawn)
result: 0.3 ×10⁻⁶ cm/s

query: Same again, this time with N#Cc1ccc(N2CCC[C@@H]2C(O)COCCOCCOCCOCCOC23CC4CC(CC(C4)C2)C3)cc1C(F)(F)F (stereo partly drawn)
result: 2.3 ×10⁻⁶ cm/s

query: Same again, this time with CC1(C)C(=O)N(c2ccc(C#N)c(C(F)(F)F)c2)C(=S)N1c1ccc(OCCOCCOCCOCCOC23CC4CC(CC(C4)C2)C3)cc1
result: < 1 ×10⁻⁶ cm/s

query: Same again, this time with Cc1ncsc1-c1ccc(CNC(=O)[C@@H]2C[C@@H](O)CN2C(=O)[C@@H](NC(=O)COCC(F)(F)COc2ccc(-c3ccc(N4C(=S)N(c5ccc(C#N)c(C(F)(F)F)c5)C(=O)C4(C)C)cc3)cc2)C(C)(C)C)cc1
result: < 1 ×10⁻⁶ cm/s

query: Same again, this time with CC1(C)C(=O)N(c2ccc(C#N)c(C(F)(F)F)c2)C(=S)N1c1ccc(OCCOCCOCCOCCOc2cccc3c2C(=O)N(C2CCC(=O)NC2=O)C3=O)cc1 (stereo not drawn)
result: < 1 ×10⁻⁶ cm/s

query: Same again, this time with Cc1ncsc1-c1ccc(CNC(=O)[C@@H]2C[C@@H](O)CN2C(=O)[C@@H](NC(=O)COCCCOc2ccc(-c3ccc(N4C(=S)N(c5ccc(C#N)c(C(F)(F)F)c5)C(=O)C4(C)C)cc3)cc2)C(C)(C)C)cc1
result: < 1 ×10⁻⁶ cm/s

query: Same again, this time with O=C1CCC(N2C(=O)c3cccc(O)c3C2=O)C(=O)N1 (stereo not drawn)
result: 2 ×10⁻⁶ cm/s

query: Same again, this time with CN1C(=O)N(c2ccc(C#N)c(C(F)(F)F)c2)C(=O)C1(C)c1ccc(O)cc1 (stereo not drawn)
result: 8.3 ×10⁻⁶ cm/s

query: Same again, this time with Cc1ncsc1-c1ccc(CNC(=O)[C@@H]2C[C@@H](O)CN2C(=O)[C@@H](NC(=O)COCC(F)(F)C(F)(F)C(F)(F)COCCCOc2ccc(N3C(=S)N(c4ccc(C#N)c(C(F)(F)F)c4)C(=O)C3(C)C)cc2)C(C)(C)C)cc1
result: < 1 ×10⁻⁶ cm/s

query: Same again, this time with Cc1ncsc1-c1ccc(CNC(=O)[C@@H]2C[C@@H](O)CN2C(=O)[C@@H](NC(=O)COCCCOCCCCOc2ccc(N3C(=S)N(c4ccc(C#N)c(C(F)(F)F)c4)C(=O)C3(C)C)cc2)C(C)(C)C)cc1
result: < 1 ×10⁻⁶ cm/s

query: Same again, this time with CC(O)(COc1ccc(OCCOCCOCCOCCOc2cccc3c2CN([C@H]2CCC(=O)NC2=O)C3=O)cc1)C(=O)Nc1ccc(C#N)c(C(F)(F)F)c1 (stereo partly drawn)
result: 0.4 ×10⁻⁶ cm/s

query: Same again, this time with CC(O)(COc1ccc(OCCOCCOCCOCCOc2cccc3c2C(=O)N(C2CCC(=O)NC2=O)C3=O)cc1)C(=O)Nc1ccc(C#N)c(C(F)(F)F)c1 (stereo not drawn)
result: 0.3 ×10⁻⁶ cm/s

query: Same again, this time with N#Cc1ccc(N2CCC[C@@H]2C(O)CO)cc1C(F)(F)F (stereo partly drawn)
result: 13.3 ×10⁻⁶ cm/s

* * *

Assay: Chromatographic hydrophobicity index, log D of the compound at pH 7.4 by HPLC analysis
Assay type: physicochemical
Conditions: buffer
Please respond with yes (1) when measured CHI is strictly beneath 6, and with no (0) in all other cases.

query: Determine if Cc1ncsc1-c1ccc(CNC(=O)[C@@H]2C[C@@H](O)CN2C(=O)[C@@H](NC(=O)COCCCCCOc2ccc(C(=O)N[C@H]3C(C)(C)[C@H](Oc4ccc(C#N)c(C(F)(F)F)c4)C3(C)C)cc2)C(C)(C)C)cc1 shows CHI strictly lower than 6.
result: no (0)

query: Same again, this time with OC12CC3CC(CC(C3)C1)C2
result: no (0)

query: Same again, this time with CC1(C)C(=O)N(c2ccc(C#N)c(C(F)(F)F)c2)C(=S)N1c1ccc(O)cc1
result: yes (1)

query: Same again, this time with O=C1CC[C@H](N2Cc3c(O)cccc3C2=O)C(=O)N1
result: yes (1)

query: Same again, this time with CN1C(=O)N(c2ccc(C#N)c(C(F)(F)F)c2)C(=O)C1(C)c1ccc(O)cc1 (stereo not given)
result: yes (1)

query: Same again, this time with O=C1CCC(N2C(=O)c3cccc(O)c3C2=O)C(=O)N1 (stereo not given)
result: yes (1)

query: Same again, this time with Cc1ncsc1-c1ccc(CNC(=O)[C@@H]2C[C@@H](O)CN2C(=O)[C@@H](NC(=O)COCCCOCCCCCOc2ccc(N3C(=S)N(c4ccc(C#N)c(C(F)(F)F)c4)C(=O)C3(C)C)cc2)C(C)(C)C)cc1
result: no (0)

query: Same again, this time with Cc1ncsc1-c1ccc(CNC(=O)[C@@H]2C[C@@H](O)CN2C(=O)[C@@H](NC(=O)COCCCOc2ccc(-c3ccc(N4C(=S)N(c5ccc(C#N)c(C(F)(F)F)c5)C(=O)C4(C)C)cc3)cc2)C(C)(C)C)cc1
result: no (0)

query: Same again, this time with Cc1ncsc1-c1ccc(CNC(=O)[C@@H]2C[C@@H](O)CN2C(=O)[C@@H](NC(=O)CCOCCOCCOc2ccc(C(=O)N[C@H]3C(C)(C)[C@H](Oc4ccc(C#N)c(C(F)(F)F)c4)C3(C)C)cc2)C(C)(C)C)cc1
result: yes (1)

query: Same again, this time with CC(O)(COc1ccc(O)cc1)C(=O)Nc1ccc(C#N)c(C(F)(F)F)c1 (stereo not given)
result: yes (1)

query: Same again, this time with Cc1ncsc1-c1ccc(CNC(=O)[C@@H]2C[C@@H](O)CN2C(=O)[C@@H](NC(=O)COCC(F)(F)C(F)(F)C(F)(F)COCCCOc2ccc(N3C(=S)N(c4ccc(C#N)c(C(F)(F)F)c4)C(=O)C3(C)C)cc2)C(C)(C)C)cc1
result: no (0)

query: Same again, this time with Cc1ncsc1-c1ccc(CNC(=O)[C@@H]2C[C@@H](O)CN2C(=O)[C@@H](NC(=O)CCOCCOCCOCCOc2ccc(N3C(=S)N(c4ccc(C#N)c(C(F)(F)F)c4)C(=O)C3(C)C)cc2)C(C)(C)C)cc1
result: yes (1)

* * *

Experiment: Efflux ratio of apparent permeability across basolateral to apical membrane over apical to basolateral membrane in human Caco2 cells at 10 uM incubated for 120 mins
Format: ADME, cell-based
Details: Caco-2
Metric Name: efflux ratio at 2 h, 10 µM

query: Please look up its efflux ratio at 2 h, 10 µM: Cc1ncsc1-c1ccc(CNC(=O)[C@@H]2C[C@@H](O)CN2C(=O)[C@@H](NC(=O)COCC(F)(F)C(F)(F)C(F)(F)COCCCOc2ccc(N3C(=S)N(c4ccc(C#N)c(C(F)(F)F)c4)C(=O)C3(C)C)cc2)C(C)(C)C)cc1
result: < 3

query: Same again, this time with Cc1ncsc1-c1ccc(CNC(=O)[C@@H]2C[C@@H](O)CN2C(=O)[C@@H](NC(=O)COCCCOCC(F)(F)C(F)(F)COc2ccc(N3C(=S)N(c4ccc(C#N)c(C(F)(F)F)c4)C(=O)C3(C)C)cc2)C(C)(C)C)cc1
result: > 3

query: Same again, this time with Cc1ncsc1-c1ccc(CNC(=O)[C@@H]2C[C@@H](O)CN2C(=O)[C@@H](NC(=O)COCCCOCCCCOc2ccc(N3C(=S)N(c4ccc(C#N)c(C(F)(F)F)c4)C(=O)C3(C)C)cc2)C(C)(C)C)cc1
result: > 0.5

query: Same again, this time with Cc1ncsc1-c1ccc(CNC(=O)[C@@H]2C[C@@H](O)CN2C(=O)[C@@H](NC(=O)CCOCCOCCOCCOc2ccc(N3C(=S)N(c4ccc(C#N)c(C(F)(F)F)c4)C(=O)C3(C)C)cc2)C(C)(C)C)cc1
result: > 12

* * *

Target: Albumin (Homo sapiens)
Sequence (P02768 whole entry): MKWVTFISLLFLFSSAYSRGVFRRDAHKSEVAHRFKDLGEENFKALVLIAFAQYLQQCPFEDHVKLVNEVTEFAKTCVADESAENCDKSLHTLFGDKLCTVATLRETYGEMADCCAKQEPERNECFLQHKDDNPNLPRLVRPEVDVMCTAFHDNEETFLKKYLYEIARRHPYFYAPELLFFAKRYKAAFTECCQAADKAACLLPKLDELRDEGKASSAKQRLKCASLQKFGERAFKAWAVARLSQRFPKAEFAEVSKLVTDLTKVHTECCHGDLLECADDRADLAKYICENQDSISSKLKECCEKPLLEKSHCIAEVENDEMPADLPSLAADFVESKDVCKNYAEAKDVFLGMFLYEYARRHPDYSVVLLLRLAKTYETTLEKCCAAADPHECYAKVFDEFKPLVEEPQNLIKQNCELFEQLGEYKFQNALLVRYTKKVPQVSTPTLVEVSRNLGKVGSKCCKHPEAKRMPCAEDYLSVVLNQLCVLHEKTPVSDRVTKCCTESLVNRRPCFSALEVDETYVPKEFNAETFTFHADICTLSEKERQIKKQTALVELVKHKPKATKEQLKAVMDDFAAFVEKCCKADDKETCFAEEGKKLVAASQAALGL
Assay: Binding affinity to HSA assessed as free fraction by HPLC analysis
Assay type: ADME
Conditions: isolated protein
Provide the recorded Activity for the entries that follow.

query: Please look up its Activity: Cc1ncsc1-c1ccc(CNC(=O)[C@@H]2C[C@@H](O)CN2C(=O)[C@@H](NC(=O)COCCCOc2ccc(-c3ccc(N4C(=S)N(c5ccc(C#N)c(C(F)(F)F)c5)C(=O)C4(C)C)cc3)cc2)C(C)(C)C)cc1
result: 7%

query: Same again, this time with N#Cc1ccc(N2CCC[C@@H]2C(O)CO)cc1C(F)(F)F (stereo partly drawn)
result: > 5%

query: Same again, this time with O=C1CCC(N2C(=O)c3cccc(O)c3C2=O)C(=O)N1 (stereo not drawn)
result: > 5%

query: Same again, this time with O=C1CC[C@H](N2Cc3c(O)cccc3C2=O)C(=O)N1
result: > 5%

query: Same again, this time with Cc1ncsc1-c1ccc(CNC(=O)[C@@H]2C[C@@H](O)CN2C(=O)[C@@H](NC(=O)COCCCOCC(F)(F)C(F)(F)COc2ccc(N3C(=S)N(c4ccc(C#N)c(C(F)(F)F)c4)C(=O)C3(C)C)cc2)C(C)(C)C)cc1
result: 7%

query: Same again, this time with CC(O)(COc1ccc(O)cc1)C(=O)Nc1ccc(C#N)c(C(F)(F)F)c1 (stereo not drawn)
result: > 5%

query: Same again, this time with Cc1ncsc1-c1ccc(CNC(=O)[C@@H]2C[C@@H](O)CN2C(=O)[C@@H](NC(=O)COCCCCCOc2ccc(C(=O)N[C@H]3C(C)(C)[C@H](Oc4ccc(C#N)c(C(F)(F)F)c4)C3(C)C)cc2)C(C)(C)C)cc1
result: 7%

query: Same again, this time with CC1(C)C(=O)N(c2ccc(C#N)c(C(F)(F)F)c2)C(=S)N1c1ccc(O)cc1
result: > 5%
